Target: FGR (human)
Test: Caliper, Mobility shift assay off-chip
Conditions: compound 0.2 µM
This section presents compounds with their documented inhibition values.

| molecule | inhibition |
| --- | --- |
| COc1cc2c(Oc3ccc4[nH]c(C)cc4c3F)ncnc2cc1OCCCN1CCCC1 | 27.6% |
| Cc1ccc(Nc2nccc(N(C)c3ccc4c(C)n(C)nc4c3)n2)cc1S(N)(=O)=O | 54.2% |
| CCN(CC)CCNC(=O)c1c(C)[nH]c(/C=C2\C(=O)Nc3ccc(F)cc32)c1C | 63.4% |
| CNC(=O)c1cc(Oc2ccc(NC(=O)Nc3ccc(Cl)c(C(F)(F)F)c3)cc2)ccn1 | 14.2% |

----------
Target: CLK1 (human)
Experiment: Caliper, Mobility shift assay off-chip
Conditions: compound 0.02 µM
molecules and their reported inhibition
property: inhibition (%)

| molecule | property | units symbol | endpoint value |
| --- | --- | --- | --- |
| CNC(=O)c1ccccc1Sc1ccc2c(/C=C/c3ccccn3)n[nH]c2c1 | inhibition | % | -7.5 |
| CNC(=O)c1cc(Oc2ccc(NC(=O)Nc3ccc(Cl)c(C(F)(F)F)c3)cc2)ccn1 | inhibition | % | -7 |
| Cc1ccc(Nc2nccc(N(C)c3ccc4c(C)n(C)nc4c3)n2)cc1S(N)(=O)=O | inhibition | % | -4.3 |
| COc1cc2c(Oc3ccc4[nH]c(C)cc4c3F)ncnc2cc1OCCCN1CCCC1 | inhibition | % | 8.1 |

----------
Target: CAMK2A (human) (UniProt Q9UQM7)
Sequence (Q9UQM7 whole entry, looked up): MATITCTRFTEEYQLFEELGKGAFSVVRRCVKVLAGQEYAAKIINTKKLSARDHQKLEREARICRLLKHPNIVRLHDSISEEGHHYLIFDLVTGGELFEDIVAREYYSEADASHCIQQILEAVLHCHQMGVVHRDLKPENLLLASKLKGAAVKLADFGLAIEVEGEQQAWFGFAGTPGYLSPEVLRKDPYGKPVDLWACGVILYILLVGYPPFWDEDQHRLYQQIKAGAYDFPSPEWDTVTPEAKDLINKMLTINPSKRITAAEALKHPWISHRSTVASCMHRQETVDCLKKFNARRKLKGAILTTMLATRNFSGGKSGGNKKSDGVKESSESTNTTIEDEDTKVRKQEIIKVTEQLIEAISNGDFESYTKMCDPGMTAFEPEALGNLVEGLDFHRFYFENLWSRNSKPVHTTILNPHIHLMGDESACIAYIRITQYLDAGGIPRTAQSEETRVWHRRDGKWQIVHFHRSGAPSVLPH
Test: Caliper, Mobility shift assay off-chip
Settings: compound 0.2 µM

| molecule | units symbol | inhibition |
| --- | --- | --- |
| CCN(CC)CCNC(=O)c1c(C)[nH]c(/C=C2\C(=O)Nc3ccc(F)cc32)c1C | % | 24.5 |
| COc1cc2c(Oc3ccc4[nH]c(C)cc4c3F)ncnc2cc1OCCCN1CCCC1 | % | 3.9 |
| Cc1ccc(Nc2nccc(N(C)c3ccc4c(C)n(C)nc4c3)n2)cc1S(N)(=O)=O | % | 5.1 |
| CNC(=O)c1cc(Oc2ccc(NC(=O)Nc3ccc(Cl)c(C(F)(F)F)c3)cc2)ccn1 | % | 5.8 |

----------
Target: ROCK1 (human) (UniProt Q13464)
Sequence (Q13464 whole entry, looked up): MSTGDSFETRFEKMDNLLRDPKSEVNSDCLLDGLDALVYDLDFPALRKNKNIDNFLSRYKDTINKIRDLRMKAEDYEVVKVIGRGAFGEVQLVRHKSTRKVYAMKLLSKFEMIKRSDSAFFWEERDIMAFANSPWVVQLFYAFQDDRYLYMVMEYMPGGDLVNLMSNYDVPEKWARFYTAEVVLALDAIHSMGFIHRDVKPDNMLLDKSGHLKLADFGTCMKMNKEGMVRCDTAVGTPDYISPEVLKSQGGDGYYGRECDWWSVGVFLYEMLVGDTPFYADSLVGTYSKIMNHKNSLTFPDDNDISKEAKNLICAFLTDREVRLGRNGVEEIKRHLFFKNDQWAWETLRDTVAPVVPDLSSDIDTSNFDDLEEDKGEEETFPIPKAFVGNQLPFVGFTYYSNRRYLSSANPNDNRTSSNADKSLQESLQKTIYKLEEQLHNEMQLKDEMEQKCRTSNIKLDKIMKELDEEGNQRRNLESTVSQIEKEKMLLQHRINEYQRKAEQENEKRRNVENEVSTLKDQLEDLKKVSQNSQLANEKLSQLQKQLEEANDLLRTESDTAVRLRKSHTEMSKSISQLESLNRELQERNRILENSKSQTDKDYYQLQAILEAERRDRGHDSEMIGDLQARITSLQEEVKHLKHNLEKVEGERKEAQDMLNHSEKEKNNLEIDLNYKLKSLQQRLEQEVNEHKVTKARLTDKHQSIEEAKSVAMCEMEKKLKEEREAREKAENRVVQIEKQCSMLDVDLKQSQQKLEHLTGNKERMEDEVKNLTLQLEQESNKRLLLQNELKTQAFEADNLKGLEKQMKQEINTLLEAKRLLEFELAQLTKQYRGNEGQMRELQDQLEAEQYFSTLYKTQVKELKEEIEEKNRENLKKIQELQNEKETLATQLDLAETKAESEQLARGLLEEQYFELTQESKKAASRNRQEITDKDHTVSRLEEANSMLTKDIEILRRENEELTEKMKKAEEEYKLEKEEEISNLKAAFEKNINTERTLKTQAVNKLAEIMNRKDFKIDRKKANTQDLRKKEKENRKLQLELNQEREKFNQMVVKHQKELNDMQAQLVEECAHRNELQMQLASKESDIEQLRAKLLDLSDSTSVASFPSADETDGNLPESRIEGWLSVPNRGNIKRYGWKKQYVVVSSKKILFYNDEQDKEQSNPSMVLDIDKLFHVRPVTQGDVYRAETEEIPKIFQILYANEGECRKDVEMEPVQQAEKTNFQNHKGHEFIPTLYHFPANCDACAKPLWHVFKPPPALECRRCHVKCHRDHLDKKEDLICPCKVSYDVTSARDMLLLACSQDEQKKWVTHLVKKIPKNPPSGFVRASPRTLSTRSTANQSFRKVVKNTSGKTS
Experiment: Caliper, Mobility shift assay off-chip
Conditions: compound 0.2 µM
property: inhibition (%)

| molecule | units symbol | endpoint value |
| --- | --- | --- |
| Cc1ccc(Nc2nccc(N(C)c3ccc4c(C)n(C)nc4c3)n2)cc1S(N)(=O)=O | % | 4.4 |
| COc1cc2c(Oc3ccc4[nH]c(C)cc4c3F)ncnc2cc1OCCCN1CCCC1 | % | -1.3 |
| CNC(=O)c1cc(Oc2ccc(NC(=O)Nc3ccc(Cl)c(C(F)(F)F)c3)cc2)ccn1 | % | 6.8 |
| CCN(CC)CCNC(=O)c1c(C)[nH]c(/C=C2\C(=O)Nc3ccc(F)cc32)c1C | % | 8.9 |

----------
This section presents molecules with their documented inhibition values.
Target: AKT3 (human) (UniProt Q9Y243)
Sequence (Q9Y243 whole entry, looked up): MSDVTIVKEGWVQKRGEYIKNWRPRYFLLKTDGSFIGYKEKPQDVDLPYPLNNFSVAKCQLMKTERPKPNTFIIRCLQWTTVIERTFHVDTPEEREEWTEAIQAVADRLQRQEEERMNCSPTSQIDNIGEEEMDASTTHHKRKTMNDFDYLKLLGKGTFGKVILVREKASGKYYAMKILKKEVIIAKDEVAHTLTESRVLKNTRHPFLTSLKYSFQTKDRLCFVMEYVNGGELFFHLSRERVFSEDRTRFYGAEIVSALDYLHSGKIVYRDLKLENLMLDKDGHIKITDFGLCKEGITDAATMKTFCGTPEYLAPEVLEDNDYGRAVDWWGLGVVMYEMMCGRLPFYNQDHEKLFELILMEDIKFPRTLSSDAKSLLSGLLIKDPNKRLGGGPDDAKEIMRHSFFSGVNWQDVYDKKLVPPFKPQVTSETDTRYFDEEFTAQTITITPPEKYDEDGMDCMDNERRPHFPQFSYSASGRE
Assay: Caliper, Mobility shift assay off-chip
Settings: compound 0.02 µM
property: inhibition

| molecule | tgt | endpoint value |
| --- | --- | --- |
| COc1cc2c(Oc3ccc4[nH]c(C)cc4c3F)ncnc2cc1OCCCN1CCCC1 | AKT3 (human) (UniProt Q9Y243) | -3.5% |
| CNC(=O)c1cc(Oc2ccc(NC(=O)Nc3ccc(Cl)c(C(F)(F)F)c3)cc2)ccn1 | AKT3 (human) (UniProt Q9Y243) | -2.6% |
| CNC(=O)c1ccccc1Sc1ccc2c(/C=C/c3ccccn3)n[nH]c2c1 | AKT3 (human) (UniProt Q9Y243) | -5.5% |
| Cc1ccc(Nc2nccc(N(C)c3ccc4c(C)n(C)nc4c3)n2)cc1S(N)(=O)=O | AKT3 (human) (UniProt Q9Y243) | -3.2% |

Measured values drawn from the kinase profiling compilation of Christmann-Franck et al. (2016) for this set.
